Readout: melting point (°C)

Example entries and their recorded answers appear below.
# Compound, Test result
rows = [
    ("O=C(O)[C@@H](O)[C@H](O)C(=O)O", 168),
    ("c1ccc2cc3cc4ccccc4cc3cc2c1 [Naphthacene]", 357),
    ("OB(O)c1ccnc(Cl)c1", 162),
    ("CC(C(=O)O)c1cccc(C(=O)c2ccccc2)c1 (stereo unspecified)", 93),
    ("Oc1ccc(Br)cc1-c1ccno1", 211),
]

(I) COc1ccc(C=C2C3=C(CCCC3)OC3=C2CCCC3)cc1
(II) C(=N\c1ccccc1)/c1ccccc1
For the two items I and II , which reports the higher melting point value? State the label of the item chosen.
I
(I: 124 °C, II: 53 °C)

(A) OCC(O)C(O)CO (stereo unspecified)
(B) CC1(O)CCCC1
Please tell me which of the two, A or B , has the higher reported melting point value. Lab log: write the label of the selected item as the result.
A

====

Readout: melting point (°C)

# Molecule, Test result
data = [
    ("CC(C)C1=C(O)C(=O)C2=C(C1=O)C(O)CC1C(C)(C)CCCC21C (stereo not given)", 174),
]

(P) O=C(O)C1CCCCC1 [cyclohexanecarboxylic acid]
(Q) NS(=O)(=O)c1cc2c(cc1Cl)NCNS2(=O)=O [hydrochlorothiazide]
(R) O=CC[C@H](O)[C@H](O)CO [2-deoxy-D-ribose]
(S) CSc1ccccc1C(=O)O [2-(methylthio)benzoic acid]
Reorder the items by melting point, least to greatest. Present the labels in the sequence the task asks for.
P, R, S, Q
(P: 30 °C, R: 85 °C, S: 167 °C, Q: 270 °C)

====

Readout: melting point (°C)

Worked cases, melting point given:
# Compound, melting point, °C
records = [
    ("Cc1ccn(C(N)=O)n1 [3-methyl-1h-pyrazole-1-carboxamide]", 125),
    ("C=C(C)C(=O)OC(O)CC (stereo not given) [1-Hydroxypropyl methacrylate]", -58),
    ("CCNC(=O)C(=O)NCC [N,N'-diethyloxamide]", 180),
]

(I) Cc1cccc(C)c1O [2,6-Dimethylphenol]
(II) COc1nc(N)nc(SC)n1 [2-amino-4-methoxy-6-(methylthio)-1,3,5-triazine]
(III) CCN(O)CC [N,N-diethylhydroxylamine]
(IV) CCOCCOCCOCC [1-Ethoxy-2-(2-ethoxyethoxy)ethane]
Form: Sort by [melting point] Order [ ascending ] Provide the labels, sequenced as the question asks.
IV, III, I, II
(IV: -44 °C, III: -25 °C, I: 49 °C, II: 201 °C)

(a) CC1(C)[C@H]2CC[C@]1(C)C(=O)C2 [Camphor]
(b) CC(O)CCc1ccc(CCC(C)O)cc1 (stereo not given) [4,4'-benzene-1,4-diyldibutan-2-ol]
(c) C[Si](Cl)(Cl)Cl [methyltrichlorosilane]
Sort the 3 compounds by melting point; largest first, smallest last. Return value: ordered labels per request.
a, b, c

(a) Cc1cc(NS(=O)(=O)c2ccc(N)cc2)nc(C)n1 [sulfisomidine]
(b) OC1OC[C@@H](O)[C@H](O)[C@H]1O (stereo partly drawn) [D-xylose]
(c) Ic1cccc(I)c1 [m-diiodobenzene]
Put these in order: smallest melting point first, largest last. Show the ranking through the labels, in the order asked for.
c, b, a
(c: 37 °C, b: 149 °C, a: 243 °C)

====

Readout: melting point (°C)

# Compound, melting point [°C]
rows = [
    ("O=S(=O)(Nc1ccc(Cl)cc1)c1ccccc1 [4-chloro-1-phenylsulfonamidobenzene]", 122),
    ("Cc1ccc(/C=C(\\Oc2cccc(C)c2)c2nc3ccccc3s2)cc1", 138),
    ("CC(=O)c1cccc2ccccc12 [1-acetylnaphthalene]", 10),
    ("NC(=O)N1c2ccccc2C=Cc2ccccc21 [carbamazepine]", 190),
    ("COc1ccc(C(=O)Cc2ccccc2)cc1OC [1-(3,4-Dimethoxyphenyl)-2-phenylethanone]", 73),
    ("CC(C)=O [acetone]", -94),
    ("Nc1ccc(O)c([N+](=O)[O-])c1 [4-amino-2-nitrophenol]", 129),
    ("O=C(Nc1ccccc1)c1ccccc1 [benzanilide]", 164),
]

(1) COc1ccc2c(c1)CC1(CCC(O)(c3ccc(C(C)(C)C)cc3)CC1)C2=O (stereo not given)
(2) CCOC(=O)c1ccc(N)cc1 [Benzocaine, Ethyl 4-aminobenzoate]
Which entry has a larger number for melting point, 1 or 2 ? Indicate your choice by writing its label.
1
(1: 166 °C, 2: 90 °C)

====

Readout: melting point (°C)

# Compound, Test result
records = [
    ("C[C@]12CC[C@H](O)CC1=CC[C@@H]1[C@@H]2CC[C@]2(C)C(=O)CC[C@@H]12 [3-Beta-Hydroxy-5-Androsten-17-One]", 140),
]

(I) CCCCCCN [1-hexylamine]
(II) COc1cccc(OC)c1O
Of the pair I and II , name the member with the lesser recorded melting point. Give the label under which the chosen entry appears.
I

(1) CC=O [acetaldehyde]
(2) CS(=O)c1ccc(cc1)/C=C3c2ccc(F)cc2C(CC(=O)O)=C3C (stereo unspecified) [sulindac]
Smaller melting point value, 1 vs 2 ? Write the label of whichever entry you select.
1
(1: -125 °C, 2: 185 °C)

(a) CCOC(=O)c1cc(C)n(-c2ccc(C)cc2)c1C
(b) Cc1cc(Cl)c2ccccc2n1
Would you let me know which has the greater melting point value, a or b ? Pick one; state its label.
a
(a: 61 °C, b: 25 °C)

(A) O=c1c2ccccc2sc2ccccc12
(B) CCCCOC(=O)c1ccc(O)cc1 [N-butyl 4-hydroxybenzoate]
Param metric = melting point; output whichever of A , B has the minimum value. Label of pick, please.
B

====

Readout: melting point (°C)

Consider the following illustrative entries.
# Compound, Test result
measured = [
    ("O=C(O)C1CCCCC1", 31.5),
    ("O=C(O)c1ccccc1C(=O)Nc1cccc2ccccc12", 203),
]

(A) CC(C)(C)OC(=O)NCCCC[C@H](NC(=O)OCC1c2ccccc2-c2ccccc21)C(=O)O
(B) O=C(c1ccccc1)C1CCCCC1
(C) CC(=O)c1ccc(F)cc1O [4'-fluoro-2'-hydroxyacetophenone]
(D) Oc1ccc(C(c2ccccc2)(c2ccccc2)c2ccccc2)cc1
(E) Nc1ccc(C(=O)O)cc1 [p-aminobenzoic acid]
Order the records so the highest melting point appears first and the lowest last. Ranked list of labels, please, in the requested order.
D, E, A, B, C
(D: 281 °C, E: 189 °C, A: 132 °C, B: 55 °C, C: 32 °C)

(a) O=C(CCCN1CCC(O)(c2ccc(Cl)cc2)CC1)c1ccc(F)cc1
(b) c1ccc2c(c1)Cc1ccccc1O2
Compare a and b by numeric melting point and name the larger one. Answer = label.
a
(a: 148 °C, b: 101 °C)

(I) O=C(O)c1ccc(F)cc1
(II) CN(C)c1ccc(N=C=S)cc1 [4-dimethylaminophenyl isothiocyanate]
(III) CC(=O)Nc1ccc(Br)c(C(F)(F)F)c1 [4'-bromo-3'-(trifluoromethyl)acetanilide]
(IV) CC1(C)c2ccccc2Oc2ccccc21
Rank the 4 compounds: largest melting point first, smallest last. Put the labels in the requested order and write them down.
I, III, II, IV
(I: 185 °C, III: 118 °C, II: 67 °C, IV: 42 °C)

====

Readout: melting point (°C)

Examples with their reported melting point follow.
# Molecule, melting point (°C)
rows = [
    ("NC(=O)c1cccc(N)c1 [m-aminobenzamide]", 115),
    ("O=C(O)C1CCCCC1", 31),
    ("NS(=O)(=O)c1cc2c(cc1Cl)NCNS2(=O)=O", 274),
]

(a) O=[N+]([O-])c1cccc(CO)c1
(b) NC(=O)c1ccc(F)c(F)c1 [3,4-difluorobenzamide]
(c) CCO[SiH](OCC)OCC
Sort low-to-high on melting point, please. Reply with the labels, ordered as the question asks.
c, a, b
(c: -170 °C, a: 32 °C, b: 133 °C)

====

Readout: melting point (°C)

Worked cases, melting point given:
# Compound, Unit of measurement, melting point
measured = [
    ("COc1ccc(C(=O)O)cc1 [4-methoxybenzoic acid]", "°C", 185),
    ("CCCC=O [butanal]", "°C", -97),
    ("CC1=C(CC(=O)O)c2cc(F)ccc2/C1=C\\c1ccc([S+](C)[O-])cc1 (stereo unspecified) [Sulindac]", "°C", 184),
    ("O=Cc1ccco1 [furfuraldehyde]", "°C", -36.5),
    ("S=C=Nc1cccc2ccccc12 [1-Isothiocyanatonaphthalene]", "°C", 58),
    ("O=Cc1cccc2ccccc12 [1-naphthaldehyde]", "°C", 2),
]

(I) N#Cc1cccc(I)c1 [3-iodobenzonitrile]
(II) O=C1C=C/C(=O)N(N1)C [N-methylmaleic hydrazide]
(III) COc1cc(C(=O)OCc2cccc(COC(=O)c3cc(OC)c(OC)c(OC)c3)n2)cc(OC)c1OC [pirozadil]
# desc sort on melting point across 3 compounds The reply should contain the labels ordered as requested.
II, III, I
(II: 218 °C, III: 119 °C, I: 40 °C)

Cited source: the Bradley open melting point set (2014)
